Ref: patent US20200147235A1

MEASURED_ON: T1, Cynomolgus monkey CD98 ECD with C-terminal His-tag (SEQ ID NO: 127) (cynomolgus monkey, UniProt P08195 105-529 (human entry))
T1 construct: The entry includes the linker and the polyhistidine tag; also called cyCD98 ECD
T1 chain: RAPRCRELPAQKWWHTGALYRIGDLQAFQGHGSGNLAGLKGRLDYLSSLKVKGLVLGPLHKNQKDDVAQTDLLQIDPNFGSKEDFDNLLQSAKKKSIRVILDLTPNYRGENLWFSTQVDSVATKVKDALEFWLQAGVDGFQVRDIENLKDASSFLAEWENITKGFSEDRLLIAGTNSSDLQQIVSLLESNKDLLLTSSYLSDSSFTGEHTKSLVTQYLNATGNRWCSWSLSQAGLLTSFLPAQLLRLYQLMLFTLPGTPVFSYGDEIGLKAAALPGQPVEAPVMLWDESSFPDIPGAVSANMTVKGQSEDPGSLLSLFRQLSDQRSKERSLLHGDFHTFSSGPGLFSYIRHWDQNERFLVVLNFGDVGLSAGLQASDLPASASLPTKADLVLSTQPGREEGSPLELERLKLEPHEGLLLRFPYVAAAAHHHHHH
ASSAY_EXPLANATION: SPR (Biacore), recombinant CD98 ECD
MEASUREMENT_NAME: Kd (nM)
State just the number; it will be interpreted in nM.

huAb109 (antibody, V domains shown, Framework re-engineered humanized clone (parent huAb15v6), expressed as full-length IgG) VH: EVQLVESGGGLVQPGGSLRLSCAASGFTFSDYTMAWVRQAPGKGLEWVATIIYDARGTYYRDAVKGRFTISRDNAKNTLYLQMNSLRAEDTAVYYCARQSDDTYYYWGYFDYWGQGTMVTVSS VL: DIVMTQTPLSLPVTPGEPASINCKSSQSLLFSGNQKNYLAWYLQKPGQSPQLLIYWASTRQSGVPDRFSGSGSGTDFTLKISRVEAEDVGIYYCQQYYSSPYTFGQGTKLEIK: 12
huAb108 (antibody, human IgG1, kappa, L234A L235A, V domains shown, Framework re-engineered humanized clone (parent huAb15v2); also called CL-huAb108) VH: EVQLVQSGAEVKKPGASVKVSCKASGFTFSDYTMAWVRQAPGQGLEWVATIIYSGRGTYYRDAVKGRFTITRDNSTSTLYLELSSLRSEDTAVYYCARQSDDTYYYWGYFDYWGQGTMVTVSS VL: DIVMTQTPLSLPVTPGEPASINCKSSQSLLFSGNQKNYLAWYLQKPGQSPQLLIYWASTRQSGVPDRFSGSGSGTDFTLKISRVEAEDVGIYYCQQYYDVPYTFGQGTKLEIKR: 4.6
huAb103 (antibody, V domains shown, Framework re-engineered humanized clone (parent huAb3v2), expressed as full-length IgG; also called haAb103) VH: EVQLVESGGGLVKPGGSLRLSCATSGFTFIDYYMSWVRQAPGKGLEWLGFIRNKAYGYTTEYSASVKGRFTISRDNSKSILYLQMNSLKTEDTAVYYCTRDRPAWFVYWGQGTLVTVSS VL: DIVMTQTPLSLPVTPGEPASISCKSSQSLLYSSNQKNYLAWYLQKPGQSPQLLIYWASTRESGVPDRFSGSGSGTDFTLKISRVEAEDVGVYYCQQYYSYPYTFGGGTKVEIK: 14
huAb110 (antibody, human IgG1, kappa, L234A L235A, V domains shown, Framework re-engineered humanized clone (parent huAb15v6); also called CL-huAb110) VH: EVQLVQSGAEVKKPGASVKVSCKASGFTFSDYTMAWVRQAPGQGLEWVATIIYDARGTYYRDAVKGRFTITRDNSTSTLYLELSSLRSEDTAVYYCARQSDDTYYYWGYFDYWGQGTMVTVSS VL: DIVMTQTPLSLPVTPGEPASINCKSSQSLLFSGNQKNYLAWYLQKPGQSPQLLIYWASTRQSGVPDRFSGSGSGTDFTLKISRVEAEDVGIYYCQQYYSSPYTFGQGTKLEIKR: 23

// next entry
Entry huAb107 (antibody, V domains shown, Framework re-engineered humanized clone (parent huAb15v2), expressed as full-length IgG) VH: EVQLVESGGGLVQPGGSLRLSCAASGFTFSDYTMAWVRQAPGKGLEWVATIIYSGRGTYYRDAVKGRFTISRDNAKNTLYLQMNSLRAEDTAVYYCARQSDDTYYYWGYFDYWGQGTMVTVSS VL: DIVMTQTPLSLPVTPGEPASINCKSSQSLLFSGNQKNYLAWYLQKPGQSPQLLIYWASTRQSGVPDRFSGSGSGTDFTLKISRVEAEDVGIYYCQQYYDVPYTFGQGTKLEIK , Kd reported as 2.7
